Tested on: CEM cells HIV-1 protection, formazan growth assay
TEST_SUMMARY: NCI AIDS Antiviral Assay
TEST_PARAMETERS: measured here: growth of uninfected CEM cells
READOUT_NAME: IC50 (µM)
Answers are plain numbers, in µM.

# count of solved cases: 4
CCCC(C)C(N)=Nc1ccc(Cl)c(Cl)c1 (stereo unspecified)    45.7
O=c1c2c(F)c(F)c(F)c(F)c2sc2nccn12    3.89
O=c1cc(-c2ccc(O)c(O)c2)oc2cc(OC3OC(CO)C(O)C(O)C3O)cc(O)c12 (stereo unspecified)    15.5
CC1Nc2c(ccc3ncccc23)C(=O)N1Nc1ccccc1 (stereo unspecified)    60.3

We now examine a further compound.
// CC[C@@]1(OC(=O)C(N)CCC(=O)O)C(=O)OCc2c1cc1n(c2=O)Cc2cc3ccccc3nc2-1 (stereo partly specified) : IC50 value = 0.0145

----------
System: CEM cells HIV-1 protection, formazan growth assay
TEST_SUMMARY: NCI AIDS Antiviral Assay;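 active means compounds giving half or more protection of infected cells from virus-caused growth loss, again on retest; inactive means the rest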
Choose one outcome from this list and give only that: TRUE for active, FALSE for inactive

CCC(=O)C1(N2CCOCC2)CCN(CCCC(=O)c2ccc(F)cc2)CC1    FALSE
COC1(C(C)(C)C)C=C(C(C)(C)C)P(=O)(O)O1 (centres undefined)    FALSE
CCOC(=O)C(=O)Nc1c(C)cccc1C(C)C    FALSE

input: # fetch the recorded call for CN(CCO)CCCC1COc2ccccc2O1 (centres undefined) here
output: FALSE

input: # fetch the recorded call for CCOC(=O)c1c(NC(=O)Nc2ccccc2)c(C(N)=O)c2n1CCCCC2 here
output: FALSE

input: # fetch the recorded call for O=c1n(-c2ccc(Cl)c(Cl)c2)c(=O)n(-c2ccc(Cl)c(Cl)c2)c(=O)n1-c1ccc(Cl)c(Cl)c1 here
output: FALSE

input: # fetch the recorded call for O=C1[C@@H]2C(c3ccccc3Br)=NO[C@@H]2C(=O)N1c1ccc(Cc2ccc(N3C(=O)[C@H]4C(c5ccccc5Br)=NO[C@H]4C3=O)cc2)cc1 here
output: FALSE

input: # fetch the recorded call for O=C(Cc1ccccc1CCO)NCCc1ccccc1 here
output: FALSE

----------
System: CEM cells HIV-1 protection, formazan growth assay
TEST_SUMMARY: NCI AIDS Antiviral Assay
TEST_PARAMETERS: measured here: growth of uninfected CEM cells
READOUT_NAME: IC50 (µM)
Give bare numbers, in µM.

# count of solved cases: 6
O=C(O)CCC(CCC(=O)O)(C(=O)O)c1ccccc1    4470
O=C1C2CCC(C2)C12CC1(c3ccccc3)C(=O)c3ccccc3N1O2 (configuration not stated)    27.5
N/N=C(\c1nc2ccc(Cl)cc2[nH]c1=O)C(O)c1ccc(Cl)c(Cl)c1 (configuration not stated)    20.4
Nc1nc(Cl)cc(OCC2(CO)CCC2)n1    135
C=C1CC(Cn2ccc(=O)[nH]c2=O)(c2ccc(-c3ccccc3)cc2)OC1=O (configuration not stated)    0.479
CCc1c(C)c2cc(N)ccc2[nH]c1=O    29.5

Give me IC50 for each of these compounds, listed below.
1. Oc1ccc(Cl)cc1C(c1cc(Cl)ccc1O)C(Cl)(Cl)Cl
2. O=C(Nc1ccc(/C=C/c2ccc(NC(=O)c3cc(S(=O)(=O)O)c4cccnc4c3O)cc2S(=O)(=O)O)c(S(=O)(=O)O)c1)c1cc(S(=O)(=O)O)c2cccnc2c1O

output:
[16.6, 148]

----------
Test system: CEM cells HIV-1 protection, formazan growth assay
TEST_SUMMARY: NCI AIDS Antiviral Assay;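 active = compounds giving half or more protection of infected cells from virus-caused growth loss, again on retest; inactive = the rest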
Choose one outcome from this list and give only that: active, inactive

// known answers, use as guide
O=C(CC/C(C/C(=N/O)c1ccc(F)cc1)=N/O)N(Cc1ccccc1)Cc1ccccc1    inactive
Nc1nc(Cl)cc(Oc2ccc(Cl)cc2)n1    inactive
CCOP(=O)(OCC)OCCOCCOP(=O)(OCC)OCC    inactive
CCN(CCC#N)C(=O)Nc1ccccc1    inactive
Cc1ccc(-c2c(C#N)c(-c3ccccc3)n(NS(=O)(=O)c3ccc(C)cc3)c(=O)c2C#N)cc1    inactive
O=C(CCN1CCCCC1)N1CCc2c([nH]c3ccccc23)C1c1cccnc1 (stereo not drawn)    inactive

input: # fetch the recorded call for CCOP(=O)(OCC)/C(=C/c1cccs1)CC(C)=O here
output: inactive

input: # fetch the recorded call for CCOC(=O)/C(C#N)=C(O)/C(=C/c1ccccc1Cl)NC(=O)c1ccccc1 here
output: inactive

input: # fetch the recorded call for CC(=O)NC(CCCN(Cc1ccccc1)C(=O)NCCCl)C(=O)NCc1ccccc1 (stereo not drawn) here
output: inactive

----------
Tested on: CEM cells HIV-1 protection, formazan growth assay
TEST_SUMMARY: NCI AIDS Antiviral Assay
TEST_PARAMETERS: measured here: growth of uninfected CEM cells
READOUT_NAME: IC50

# count of solved cases: 3
O=C(OCc1ccccc1)c1ccccc1-c1c2ccc(=O)cc-2oc2cc(OCc3ccccc3)ccc12    > 5.13 µM
CC1(C)[C@@H]2C[C@H]1C(Cc1ccc(C[C@H]3c4cc(-c5ccccn5)ncc4[C@H]4C[C@@H]3C4(C)C)cc1)c1cc(-c3ccccn3)ncc12 (stereo not given in full)    0.813 µM
COc1ccccc1N1CCCSC1=Nc1ccccc1    214 µM

Give me IC50 for each of these compounds, listed below.
1. CCOC(=O)c1cc(C2(O)CCN(Cc3ccccc3)C2=O)c(-c2cc(C)no2)[nH]1 (stereo not given)
2. O=C1c2ccccc2C2(c3ccc(Cl)cc3)N[C@@H]3CCCC[C@@H]3N12 (stereo not given in full)

output:
1. 38.9 µM
2. > 200 µM

----------
Test system: CEM cells HIV-1 protection, formazan growth assay
TEST_SUMMARY: NCI AIDS Antiviral Assay
TEST_PARAMETERS: measured here: growth of uninfected CEM cells
READOUT_NAME: pIC50
Answers are plain numbers, as −log10 of the molar value.

S=c1[nH]c(=S)c2[nH]cnc2[nH]1    4.07
C=C(C)[C@@H]1CC[C@]2(C(=O)O)CC[C@]3(C)[C@H](CC[C@@H]4[C@@]5(C)CC[C@H](O)C(C)(C)[C@@H]5CC[C@]43C)[C@@H]12    4.68

We now examine a further molecule.
// COCn1c(=O)n(C)c(=O)c2c1nc1c(c(=O)n(C)c(=O)n1COC)[n+]2[O-] : pIC50 value = 5.28

----------
Answer each item with its documented IC50.
System: CEM cells HIV-1 protection, formazan growth assay
TEST_SUMMARY: NCI AIDS Antiviral Assay
TEST_PARAMETERS: measured here: growth of uninfected CEM cells
Method: The ability of compounds to protect human CEM cells from HIV-1 infection is measured as a screen for new compounds capable of inhibiting the HIV virus. Five concentrations of drug were tested on uninfected and infected cells and cell growth was measured using a soluble formazan assay. […] Compounds that provided at least 50% protection were retested. Compounds that provided at least 50% protection on retest were listed as moderately active. […]
One number for each entry, in µM.

# count of solved cases: 5
Cc1cccc(C)c1NC(=O)C(C#N)C1=C(Cl)C(=O)c2ccccc2C1=O (centres undefined)    8.71
O=C1/C(=C/c2ccccc2)NC(=S)N1CN1CCOCC1    72.4
O=c1[nH]nc(Cc2ccccc2)n1/N=C\CC/C=N\n1c(Cc2ccccc2)n[nH]c1=O    37.2
COc1cc2c(c([N+](=O)[O-])c1)NC(=O)CS2    79.4
COC(=O)C(C(=O)C(=O)Nc1ccc(C)cc1C)c1nc2ccc([N+](=O)[O-])cc2[nH]c1=O (centres undefined)    129

We now examine a further compound.
// O=P1(c2ccccc2)C(c2ccccc2)=CC=C1c1ccccc1 : IC50 value = 7.41

----------
Tested on: CEM cells HIV-1 protection, formazan growth assay
TEST_SUMMARY: NCI AIDS Antiviral Assay
TEST_PARAMETERS: measured here: growth of uninfected CEM cells
pIC50: −log10 of the molar value.
READOUT_NAME: pIC50

# count of solved cases: 5
Cc1nc(-n2nc(-c3ccccc3)cc2-c2ccccc2)sc1C(=O)/C=C/c1ccc(Cl)c(Cl)c1    < 4.58
CC(=O)Nc1ncc(Sc2ccccc2C(=O)O)s1    < 3.70
O=c1[nH]c(Nc2ccccc2)nc2c1ncn2CC(O)CSCCO (centres undefined)    < 3.70
CCC1=CCN(c2ccc(C)cc2)OC1c1ccc(OC)cc1 (centres undefined)    < 4.49
CC(=O)CCCCn1c(=O)c2c(ncn2C)n(C)c1=O    < 3.05

Give me pIC50 for each of these compounds, listed below.
1. CNC(=O)C1CCC(=O)N1CN(C(C)=O)c1ccccc1 (centres undefined)
2. NC1=CN2c3ccccc3N(CC(=O)N3CCOCC3)C2C=C1 (centres undefined)
3. CNc1ncn(-c2c(C)cccc2C)c(=O)n1
4. CC(C)N=C=NC(C)C
5. Cc1nc(-c2nc(C)c(C(=O)NNC(=O)C[n+]3ccccc3)s2)sc1C(=O)NNC(=O)C[n+]1ccccc1
6. Cn1cc(C(N)=O)ccc1=N

output:
1. < 3.70
2. < 3.70
3. < 3.70
4. < 3.42
5. < 4.24
6. < 3.70
